Entry source: patent US20220403048A1

Measured THP-1 lysate ARG2 EIA IC50, listed per entry for reference.
# tested-system: T1, THP-1 lysate derived human trimeric ARG2 (human, UniProt P78540 23-354, limits assumed)
# T1 sequence (looked up): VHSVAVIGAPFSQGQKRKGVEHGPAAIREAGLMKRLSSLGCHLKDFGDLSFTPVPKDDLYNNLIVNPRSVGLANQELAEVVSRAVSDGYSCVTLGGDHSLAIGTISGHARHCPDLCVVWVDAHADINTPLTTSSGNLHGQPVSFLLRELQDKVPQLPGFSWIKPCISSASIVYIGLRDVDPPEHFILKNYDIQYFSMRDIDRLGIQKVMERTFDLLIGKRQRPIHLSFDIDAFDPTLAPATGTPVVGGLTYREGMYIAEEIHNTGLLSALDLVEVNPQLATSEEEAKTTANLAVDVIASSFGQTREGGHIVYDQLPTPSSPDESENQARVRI
# assay-summary: cell-based or functional assay
Provide only the numeric value, understood in nM.

Below are worked cases with known answers.
binder	THP-1 lysate ARG2 EIA IC50 [nM]
C0021133 recombinant human IgG1 (antibody, V domains shown) VH: EVQLLESGGGLVQPGGSLRLSCAASGFTFRYDHHVWVRQAPGKGLEWVSAISGSGGSTYYADSVKGRFTISRDNSKNTLYLQMNSLRAEDTAVYYCARLRADLGLYMDLWGRGTLVTVSS VL: QSVLTQPPSVSAAPGQKVTVSCSGSSSNIGNHYVSWYQQLPGTAPKLLIYDTTVLSSGIPDRFSGSKSGTSATLGITGLQTGDEADYYCGTWDELTSNLVFGGGTKLTVL	7.38
C0021158 recombinant human IgG1 (antibody, V domains shown) VH: EVQLLESGGGLVQPGGSLRLSCAASGFTFRYEVAAWVRQAPGKGLEWVSAISGPIPKGYYADSVKGRFTISRDNSKNTLYLQMNSLRAEDTAVYYCARLRADLGLYMDLWGRGTLVTVSS VL: QSVLTQPPSVSAAPGQKVTISCSGSSSNIGNHYVSWYQQLPGTAPKLLIYDNSERTAGVPDRFSGSKSGTSATLGITGLQTGDEADYYCGTWDELTSNLVFGGGTKLTVL	5.36
C0021177 recombinant human IgG1 (antibody, V domains shown) VH: EVQLLESGGGLVQPGGSLRLSCAASGFTFRYEVAAWVRQAPGKGLEWVSAISGPAPKGYYADSVKGRFTISRDNSKNTLYLQMNSLRAEDTAVYYCARLRADLGLYMDLWGRGTLVTVSS VL: QSELTQPPTASAAPGQKVTISCSGSSSNIGNHYVSWYQQLPGTAPKLLIYDTTVLSSGIPDRFSGSKSGTSATLGITGLQTGDEADYYCGTWDELTSNLVFGGGTKLTVL	5.17
C0021144 recombinant human IgG1 (antibody, V domains shown) VH: EVQLLESGGGLVQPGGSLRLSCAASGFTFRYDYHVWVRQAPGKGLEWVSAISGSGGSTYYADSVKGRFTISRDNSKNTLYLQMNSLRAEDTAVYYCARLRADLGLYMDLWGRGTLVTVSS VL: QSVLTQPPSVSAAPGQKVTVSCSGSSSNIGNHHVSWYQQLPGTAPKLLIYDTTVLSSGVPDRFSGSKSGTSATLGITGLQTGDEADYYCGTWDELTSNLVFGGGTKLTVL	10.9

Exam item: Given the entry C0021155 recombinant human IgG1 (antibody, V domains shown) VH: EVQLLESGGGLVQPGGSLRLSCEASGFTFRYDYHVWVRQAPGKGLEWVSAISGSGGSTYYADPVKGRFTISRDNSKNTLYLQMNSLRAEDTAVYYCARLRADLGLYMDLWGRGTLVTVSS VL: RSVLTQPPSVSAAPGQKVTISCSGSSSNIGNHYVSWYQQLPGTAPKLLIYDTTVLSSGIPDRFSGSKSGTSATLGITGLQTGDEADYYCGTWDELTSNLVFGGGTRLTVL , report its measured THP-1 lysate ARG2 EIA IC50.
Marked response: 9.64

Exam item: C0021180 recombinant human IgG1 (antibody, V domains shown) VH: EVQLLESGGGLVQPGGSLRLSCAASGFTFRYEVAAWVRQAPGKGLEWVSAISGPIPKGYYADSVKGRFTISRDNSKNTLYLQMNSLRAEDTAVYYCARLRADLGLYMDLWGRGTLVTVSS VL: QSVLTQPPTVSAAPGRKVTISCSGSSSNIGDHHVSWYQQLPGAAPKLLIYDTDHMASGIPDRFSGSRSGTSATLGITGLQTGDEADYYCGTWDSSLSALVFGGGTKLTVL , same question.
Marked response: 4.59

Exam item: Next binder: C0021061 recombinant human IgG1 (antibody, V domains shown) VH: EVQLLESGGGLVQPGGSLRLSCAASGFTFSSYAMSWVRQAPGKGLEWVSAKPTDAGSTYYADSVKGRFTISRDNSKNTLYLQMNSLRAEDTAVYYCARLRADLGLYMDLWGRGTLVTVSS VL: QSVLTQPPSVSAAPGQKVTISCSGSSSNIGNHYVSWYQQLPGTAPKLLIYNTVYPKSGIPDRFSGSKSGTSATLGITGLQTGDEADYYCGTWDSSLSALVFGGGTKLTVL
Marked response: 5.81

Exam item: Please do the same for C0021181 recombinant human IgG1 (antibody, V domains shown) VH: EVQLLESGGGLVRPGGSLRLSCAASEFTFRYDYHVWVRQAPGKGLEWVSAISGSGGSTYYADSVKSRFTISRDNSKNTLYLQMNSLRAEDTAVYYCARLRADLGLYMDLWGRGTLVTVSS VL: QSVLTQPPSVSAAPGQKVAVSCSGSSSNIGSHYVSWYQQLPGTAPKLLIYDNSERTSGIPDRFSGSKSGTSATLGITGLQTGDEADYYCGTWDELTSNLVFGGGTRLTVL as well.
Marked response: 6.93
